# system: human CXCR3 (N-delta 4) (Homo sapiens)
# Construct: CD8 leader; Flag tag; expressed in transfected cells; membranes used
# methodDescription: Human CXCR3 (N-delta 4) scintillation proximity assay (SPA), [125I] IP-10 binding
# protocolConditions: IC50 rating; Ba/F3-hCXCR3 (N-delta 4) membranes, 25 pM [125I] IP-10
observedProperty: IC50

> print(dat)
                                   compound        result
1  O=C(NCc1cc(Cl)cc(Cl)c1)c1cnc(N2CCN(C3CCN(Cc4ccc(F)c(F)c4)CC3)CC2)c(Cl)c1 [compound 78]      > 100 nM
2  C[C@@H]1CN(c2ncc(C(=O)NCc3ccc(F)c(F)c3)cc2Cl)CCN1C1CCN(Cc2ccc(Cl)cc2)CC1 [compound 254]       < 25 nM
3  O=C(NCc1cccc(F)c1)c1cnc(N2CCN(C3CCN(Cc4ccc(F)c(F)c4)CC3)CC2)c(Cl)c1 [compound 91]      > 100 nM
4  CNC(=O)c1cnc(N2CCN(C3CCN(Cc4ccc(C)cc4)CC3)[C@@H](C)C2)c(Cl)c1 [compound 320]  25 to 100 nM
5  COc1ccc(CN2CCC(N3CCN(c4ncc(C(=O)NCCOc5ccccc5)cc4Cl)CC3)CC2)cc1 [compound 331]      > 100 nM
6  CNC(=O)c1cnc(N2CCN(C3CCN(Cc4ccc(F)cc4Cl)CC3)[C@@H](C)C2)c(Cl)c1 [compound 299]  25 to 100 nM

Item: CC[C@H]1CN(c2c(Cl)cc(C(=O)OC)c[n+]2[O-])CCN1C1CCN(Cc2ccc(Cl)cc2F)CC1 [compound 438] | IC50: > 100 nM

---

# system: human CXCR3 (N-delta 4) (Homo sapiens, UniProt P49682)
# Construct: CD8 leader; Flag tag; expressed in transfected cells; membranes used
# Sequence (P49682 5-368 limits assumed): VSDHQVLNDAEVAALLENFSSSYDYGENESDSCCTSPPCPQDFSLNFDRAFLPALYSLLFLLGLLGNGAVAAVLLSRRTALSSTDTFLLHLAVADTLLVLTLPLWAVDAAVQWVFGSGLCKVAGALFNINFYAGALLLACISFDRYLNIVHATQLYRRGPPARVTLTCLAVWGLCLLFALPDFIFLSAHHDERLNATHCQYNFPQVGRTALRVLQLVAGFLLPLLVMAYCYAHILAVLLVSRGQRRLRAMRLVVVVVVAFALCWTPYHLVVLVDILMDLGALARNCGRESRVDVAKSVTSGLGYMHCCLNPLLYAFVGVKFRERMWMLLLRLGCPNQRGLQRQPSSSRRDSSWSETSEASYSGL
# methodDescription: Human CXCR3 (N-delta 4) scintillation proximity assay (SPA), [125I] IP-10 binding
# protocolConditions: IC50 rating; Ba/F3-hCXCR3 (N-delta 4) membranes, 25 pM [125I] IP-10
# Text: The inventive compounds can readily be evaluated to determine activity at the CXCR3 receptors by known methods, such as, for example, development of a human CXCR3 (N-delta 4) Binding Assay. Cloning and expression of human CXCR3 (N-delta 4): The DNA encoding human CXCR3 was cloned by PCR using human genomic DNA (Promega, Madison, Wis.) as a template. […]
In this section, each of the compounds is paired with its reported IC50.

// solved cases for IC50 follow
> print(dat)
                                   compound        result
1  O=C(NCc1cc(Cl)cc(Cl)c1)c1cnc(N2CCN(C3CCN(Cc4ccc(Cl)cc4)CC3)CC2)c(Cl)c1 [compound 52]      > 100 nM
2  CC[C@H]1CN(c2ncc(CNC(C)=O)cc2Cl)CCN1C1CCN(Cc2ccc(Cl)cc2F)CC1 [compound 387]       < 25 nM
3  CC(C)C[C@H]1CN(c2ncc(C(=O)NCC3CCCCC3)cc2Cl)CCN1C1CCN(Cc2ccc(Cl)cc2)CC1 [compound 197]  25 to 100 nM

Next, consider the following compound.
Item: O=C(NCc1ccc(F)c(F)c1)c1cnc(N2CCN(C3CCN(Cc4ccc(Cl)cc4)CC3)CC2)c(Br)c1 [compound 253] | IC50: < 25 nM
